- experimental.context: 318.15 K; 101 kPa; Liquid; Capillary tube (Ostwald / Ubbelohde) method
Please use TRUE for viscosity under 0.5 mPa·s and FALSE for everything else, ties included.

compound | discrete.label
Cc1ccc(C)cc1 | TRUE
Cc1ccccc1C | FALSE
COC(=O)CCCCl [methyl 4-chlorobutanoate] | FALSE
Cc1ccccc1 | TRUE
Cc1cccc(C)c1 | TRUE
c1ccccc1 | TRUE

---

viscosity overview
- method.notes: xn = mol fraction of the nth substance listed
- experimental.context: 298.15 K; 101 kPa; Liquid; Capillary tube (Ostwald / Ubbelohde) method; x1 = 0.7
Numbers after ± are expanded uncertainties.
readout.kind: viscosity

compound | observed
COC(=O)CCCCl [methyl 4-chlorobutanoate] + Cc1ccc(C)cc1 | 1.133 ± 0.009 mPa·s
COC(=O)CCCCl [methyl 4-chlorobutanoate] + c1ccccc1 | 1.157 ± 0.009 mPa·s
COC(=O)CCCCl [methyl 4-chlorobutanoate] + Cc1ccccc1C | 1.235 ± 0.009 mPa·s
COC(=O)CCCCl [methyl 4-chlorobutanoate] + Cc1ccccc1 | 1.123 ± 0.009 mPa·s
